The measured values listed here are drawn from patent US20190077863A1.

- System Name: T1, Human VE-PTP (HPTP-β) containing first eight FN3 repeats with C-terminal His6 tag (Human ½ VE-PTP ECD) (human, UniProt P23467 23-820)
- T1 construct: Produced in HEK293 cells and purified by the His tag; it was not cut off; also called Human Beta ½ ECD
- T1 sequence: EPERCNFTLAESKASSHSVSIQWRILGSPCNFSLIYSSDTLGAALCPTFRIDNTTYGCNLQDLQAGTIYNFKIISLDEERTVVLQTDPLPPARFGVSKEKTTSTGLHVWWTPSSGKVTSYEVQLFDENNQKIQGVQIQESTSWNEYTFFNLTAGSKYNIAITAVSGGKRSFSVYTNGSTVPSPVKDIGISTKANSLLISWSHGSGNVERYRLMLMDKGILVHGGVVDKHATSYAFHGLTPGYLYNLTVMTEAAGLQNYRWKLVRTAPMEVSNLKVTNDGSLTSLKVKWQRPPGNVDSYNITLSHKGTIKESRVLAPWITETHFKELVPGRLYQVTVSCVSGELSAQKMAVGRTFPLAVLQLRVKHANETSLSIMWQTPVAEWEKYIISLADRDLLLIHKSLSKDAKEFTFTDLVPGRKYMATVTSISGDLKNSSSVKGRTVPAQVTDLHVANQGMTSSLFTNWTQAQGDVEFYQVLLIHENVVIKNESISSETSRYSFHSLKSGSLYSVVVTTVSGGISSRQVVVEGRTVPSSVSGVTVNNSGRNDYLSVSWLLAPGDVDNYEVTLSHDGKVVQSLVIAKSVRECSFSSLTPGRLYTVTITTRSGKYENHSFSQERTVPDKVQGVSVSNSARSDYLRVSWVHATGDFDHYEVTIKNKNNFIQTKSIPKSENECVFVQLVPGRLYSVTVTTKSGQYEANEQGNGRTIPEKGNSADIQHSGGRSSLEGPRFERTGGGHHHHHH
- Assay Procedure: SPR (Biacore 3000), antibody captured on anti-human IgG, antigen as analyte 50-0 nM
Experimental Readout: Ka (M⁻¹)
Supply the numeric figure in M⁻¹, leaving out any unit text.

Consider the binder mouse/human chimeric antibody HC0LC0 (antibody, human IgG4 S228P, kappa, V domains shown, Murine variable domains of R15E6 on human IgG4 (S228P) and kappa constant domains, expressed in CHO cells; also called VH0-VL0) VH: EVQLVETGGGLVQPKGSMKLSCAASGFTFNANAMNWIRQAPGKGLEWVARIRTKSNNYATYYAGSVKDRFTISRDDAQNMLYLQMNDLKTEDTAMYYCVRDYYGSSAWITYWGQGTLVTVSA VL: DIVMTQSHKFMSTSVGDRVSITCKASQHVGTAVAWYQQKPDQSPKQLIYWASTRHTGVPDRFTGSGSGTDFTLTISNVQSEDLADYFCQQYSSYPFTFGSGTKLEIKR and give its measured Ka. 3.18e+08
